Entry source: patent US20110028447A1

- SYSTEM_UNDER_TEST: UniProt:P21554
- Sequence (P21554 whole entry): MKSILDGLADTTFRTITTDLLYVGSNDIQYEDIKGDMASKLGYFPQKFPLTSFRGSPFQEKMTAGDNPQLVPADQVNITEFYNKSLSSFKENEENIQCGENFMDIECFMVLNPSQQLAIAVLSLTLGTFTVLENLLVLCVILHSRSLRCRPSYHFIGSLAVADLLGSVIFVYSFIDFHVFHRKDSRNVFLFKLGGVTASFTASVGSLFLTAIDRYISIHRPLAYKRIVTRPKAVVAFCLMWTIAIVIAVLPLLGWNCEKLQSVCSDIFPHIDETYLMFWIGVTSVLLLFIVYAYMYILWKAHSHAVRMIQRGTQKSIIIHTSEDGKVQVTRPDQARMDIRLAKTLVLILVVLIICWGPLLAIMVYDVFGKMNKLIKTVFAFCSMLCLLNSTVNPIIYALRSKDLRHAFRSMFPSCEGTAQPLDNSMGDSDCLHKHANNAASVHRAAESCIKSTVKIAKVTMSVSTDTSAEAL
- EXPERIMENT: Human CB1 receptor binding, [3H] CP-55,940 displacement on HEK cell membranes
- Set-up: expressed in transfected cells; host or cells: HEK cells, doxycycline-induced; membrane preparation
- MEASUREMENT_PARAMETERS: CB1 Ki
ATTRIBUTE_MEASURED: Ki (nM)
// return numeric value only (unit: nM, not printed)

* CC(C)(C)[C@H](NC(=O)c1nn(Cc2ccc(C(F)(F)F)cc2)c2ccccc12)C(=O)NCCO | 13.1
* NC(=O)[C@@H](NC(=O)c1nn(Cc2ccc(F)cc2)c2ccccc12)c1ccccc1 | 49.9
* NC(=O)[C@H](Cc1ccccc1)NC(=O)c1nn(Cc2ccc(F)cc2)c2ccccc12 | 708

Here is the next item to consider.
Specify Ki for `CC(C)(C)[C@H](NC(=O)c1nn(Cc2ccc(F)cc2)c2ccccc12)C(=O)N1CC(F)C1` , system UniProt:P21554. 0.11
